# Assayed system: Adenosine receptor A2b (Homo sapiens)
# Sequence (P29275 whole entry): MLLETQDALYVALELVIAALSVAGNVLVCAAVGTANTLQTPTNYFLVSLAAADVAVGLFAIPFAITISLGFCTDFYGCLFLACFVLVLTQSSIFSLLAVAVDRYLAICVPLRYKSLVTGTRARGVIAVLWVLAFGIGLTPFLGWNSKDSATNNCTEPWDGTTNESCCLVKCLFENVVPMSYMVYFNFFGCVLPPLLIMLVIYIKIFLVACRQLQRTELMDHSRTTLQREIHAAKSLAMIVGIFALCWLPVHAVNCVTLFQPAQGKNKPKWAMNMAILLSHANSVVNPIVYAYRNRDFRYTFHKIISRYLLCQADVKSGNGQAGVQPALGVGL
# Experiment notes: Antagonist activity at adenosine A2B receptor in HEK293 cells expressing glosensor cAMP biosensor assessed as inhibition of NECA-induced increase of intracellular cAMP level after 5 hrs
Readout type: Kd

INPUT: Need Kd of `COc1ccc(-n2nc3c(NC(=O)CCC(=O)NCCOCCOCCNC(=O)CCCCCNC(=O)COc4ccc(C5=[N+]6C(=Cc7ccc(-c8cccs8)n7[B-]6(F)F)C=C5)cc4)nc4ccccc4n3c2=O)cc1` , thanks.
OUTPUT: < 1000 nM

INPUT: Need Kd of `COc1ccc(-n2nc3c(NC(=O)CCC(=O)NCCOCCOCCNC(=O)CCCCCNC(=O)COc4ccc(/C=C/C5=[N+]6C(=Cc7ccc(-c8cccs8)n7[B-]6(F)F)C=C5)cc4)nc4ccccc4n3c2=O)cc1` , thanks.
OUTPUT: < 1000 nM

Hello, the source for this data is ChEMBL document CHEMBL2021776, in case you need it.
